- Test System: Tubulin (Homo sapiens) (UniProt P68371+Q9H4B7+P0DPH7+P68366+Q13509+Q71U36+P04350+Q3ZCM7+P07437+P68363+Q9BQE3+Q6PEY2+Q13885+Q9BVA1+Q9BUF5)
- Assay Explanation: Induction of microtubule stabilization in human PC3 cells assessed as inhibition of cell growth incubated for 72 hrs by Celltiter reagent-based assay
Below, each of the molecules is paired with its reported GI50 value.
Experimental Endpoint: GI50 (nM)

[[record]]
molecule = "C/C1=C/C=C/C(=O)O[C@H](CO)C/C=C/[C@@H]2CCC[C@H](C/C=C/C(=O)C1)O2"
units_symbol = "nM"
reported_relation = ">"
recorded_number = 30000

[[record]]
molecule = "CC(=O)O[C@H]1C(=O)[C@@]2(C)[C@H]([C@H](OC(=O)c3ccccc3)[C@]3(O)C[C@H](OC(=O)[C@H](O)[C@@H](NC(=O)c4ccccc4)c4ccccc4)C(C)=C1C3(C)C)[C@]1(OC(C)=O)CO[C@@H]1C[C@@H]2O"
units_symbol = "nM"
reported_relation = "="
recorded_number = 4.6

[[record]]
molecule = "C=C1C[C@@H]2C/C=C/C(=O)C/C(C)=C\\C=C\\C(=O)O[C@H]([C@H](O)NC(=O)/C=C\\C=C\\C)C/C(C)=C/[C@H](C1)O2"
units_symbol = "nM"
reported_relation = "="
recorded_number = 3.2

[[record]]
molecule = "C/C1=C/C=C/C(=O)O[C@H](C=O)C/C=C/[C@@H]2CCC[C@H](C/C=C/C(=O)C1)O2"
units_symbol = "nM"
reported_relation = ">"
recorded_number = 30000

[[record]]
molecule = "C/C=C/C=C\\C(=O)NC(O)[C@@H]1C/C=C/[C@@H]2CCC[C@H](C/C=C/C(=O)C/C(C)=C\\C=C\\C(=O)O1)O2 (stereo partly specified)"
units_symbol = "nM"
reported_relation = "="
recorded_number = 56

[[record]]
molecule = "C=C1C[C@@H]2C/C=C/C(=O)C/C(C)=C\\C=C\\C(=O)O[C@H](C=O)C/C(C)=C/[C@H](C1)O2"
units_symbol = "nM"
reported_relation = "="
recorded_number = 460


###

- Test System: Tubulin (Homo sapiens) (UniProt P68371+Q9H4B7+P0DPH7+P68366+Q13509+Q71U36+P04350+Q3ZCM7+P07437+P68363+Q9BQE3+Q6PEY2+Q13885+Q9BVA1+Q9BUF5)
- Assay Explanation: Induction of microtubule stabilization in human 1A9 cells assessed as inhibition of cell growth incubated for 72 hrs by Celltiter reagent-based assay
Experimental Endpoint: GI50 (µM)

[[record]]
compound = "C=C1C[C@@H]2C/C=C/C(=O)C/C(C)=C\\C=C\\C(=O)O[C@H](C=O)C/C(C)=C/[C@H](C1)O2"
experimental_endpoint = "GI50"
reported_relation = "="
recorded_number = 0.62

[[record]]
compound = "CC(=O)O[C@H]1C(=O)[C@@]2(C)[C@H]([C@H](OC(=O)c3ccccc3)[C@]3(O)C[C@H](OC(=O)[C@H](O)[C@@H](NC(=O)c4ccccc4)c4ccccc4)C(C)=C1C3(C)C)[C@]1(OC(C)=O)CO[C@@H]1C[C@@H]2O"
experimental_endpoint = "GI50"
reported_relation = "="
recorded_number = 0.0052

[[record]]
compound = "C/C1=C/C=C/C(=O)O[C@H](CO)C/C=C/[C@@H]2CCC[C@H](C/C=C/C(=O)C1)O2"
experimental_endpoint = "GI50"
reported_relation = ">"
recorded_number = 30

[[record]]
compound = "C/C1=C/C=C/C(=O)O[C@H](C=O)C/C=C/[C@@H]2CCC[C@H](C/C=C/C(=O)C1)O2"
experimental_endpoint = "GI50"
reported_relation = ">"
recorded_number = 30

[[record]]
compound = "C/C=C/C=C\\C(=O)NC(O)[C@@H]1C/C=C/[C@@H]2CCC[C@H](C/C=C/C(=O)C/C(C)=C\\C=C\\C(=O)O1)O2 (stereo partly specified)"
experimental_endpoint = "GI50"
reported_relation = "="
recorded_number = 0.12

[[record]]
compound = "C=C1C[C@@H]2C/C=C/C(=O)C/C(C)=C\\C=C\\C(=O)O[C@H]([C@H](O)NC(=O)/C=C\\C=C\\C)C/C(C)=C/[C@H](C1)O2"
experimental_endpoint = "GI50"
reported_relation = "="
recorded_number = 0.0021


###

- Test System: Tubulin (Homo sapiens) (UniProt P68371+Q9H4B7+P0DPH7+P68366+Q13509+Q71U36+P04350+Q3ZCM7+P07437+P68363+Q9BQE3+Q6PEY2+Q13885+Q9BVA1+Q9BUF5)
- Assay Explanation: Induction of microtubule stabilization in human A549 cells assessed as inhibition of cell growth incubated for 72 hrs by Celltiter reagent-based assay
// GI50 lookup, one value per entry
Experimental Endpoint: GI50

[[record]]
molecule = "C=C1C[C@@H]2C/C=C/C(=O)C/C(C)=C\\C=C\\C(=O)O[C@H]([C@H](O)NC(=O)/C=C\\C=C\\C)C/C(C)=C/[C@H](C1)O2"
experimental_endpoint = "GI50"
result = "5.2 nM"

[[record]]
molecule = "C/C1=C/C=C/C(=O)O[C@H](CO)C/C=C/[C@@H]2CCC[C@H](C/C=C/C(=O)C1)O2"
experimental_endpoint = "GI50"
result = "> 30000 nM"

[[record]]
molecule = "C=C1C[C@@H]2C/C=C/C(=O)C/C(C)=C\\C=C\\C(=O)O[C@H](C=O)C/C(C)=C/[C@H](C1)O2"
experimental_endpoint = "GI50"
result = "950 nM"

[[record]]
molecule = "C/C1=C/C=C/C(=O)O[C@H](C=O)C/C=C/[C@@H]2CCC[C@H](C/C=C/C(=O)C1)O2"
experimental_endpoint = "GI50"
result = "> 30000 nM"

[[record]]
molecule = "CC(=O)O[C@H]1C(=O)[C@@]2(C)[C@H]([C@H](OC(=O)c3ccccc3)[C@]3(O)C[C@H](OC(=O)[C@H](O)[C@@H](NC(=O)c4ccccc4)c4ccccc4)C(C)=C1C3(C)C)[C@]1(OC(C)=O)CO[C@@H]1C[C@@H]2O"
experimental_endpoint = "GI50"
result = "6 nM"

[[record]]
molecule = "C/C=C/C=C\\C(=O)NC(O)[C@@H]1C/C=C/[C@@H]2CCC[C@H](C/C=C/C(=O)C/C(C)=C\\C=C\\C(=O)O1)O2 (stereo partly specified)"
experimental_endpoint = "GI50"
result = "180 nM"

